- tested_on: T1, human ferroportin (SLC40A1) fused in frame with GFP (human) (UniProt Q9NP59)
- T1 sequence (looked up): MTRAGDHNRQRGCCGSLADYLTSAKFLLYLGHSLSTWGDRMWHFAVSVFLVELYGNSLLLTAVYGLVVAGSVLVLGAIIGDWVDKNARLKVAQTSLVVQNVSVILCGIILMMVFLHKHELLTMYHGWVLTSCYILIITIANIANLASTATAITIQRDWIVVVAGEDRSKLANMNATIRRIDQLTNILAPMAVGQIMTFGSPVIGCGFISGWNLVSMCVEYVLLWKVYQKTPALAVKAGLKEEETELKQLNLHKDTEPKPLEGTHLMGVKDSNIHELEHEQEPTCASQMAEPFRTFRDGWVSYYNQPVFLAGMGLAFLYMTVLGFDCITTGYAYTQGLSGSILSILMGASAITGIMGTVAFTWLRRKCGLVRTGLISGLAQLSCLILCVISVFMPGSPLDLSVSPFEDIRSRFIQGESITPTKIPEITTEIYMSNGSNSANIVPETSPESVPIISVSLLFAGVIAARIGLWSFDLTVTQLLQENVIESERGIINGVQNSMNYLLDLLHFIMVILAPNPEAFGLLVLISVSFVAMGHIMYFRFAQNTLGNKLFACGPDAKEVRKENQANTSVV
- assay_name: cell-based or functional assay
Positions of bridges follow the written chain, without caps; N, C: chain ends. Non-standard residues stand in square brackets, D forms with d. Groups on a side chain read outwards from the residue. *: point of attachment. Dip = N[C@H](C(=O)O)C(c1ccccc1)c1ccccc1; Palmitoyl = CCCCCCCCCCCCCCCC(=O)*; β3hF = N[C@H](CC(=O)O)Cc1ccccc1; Isovaleryl = CC(C)CC(=O)*; Npc = nipecotic acid; Ahx = NCCCCCC(=O)O
quantity_kind: FPN EC50 (nM)

binder	FPN EC50 / nM
Isovaleryl-DTH[Dip][Npc]CI[dK][β3hF]K([Ahx-Palmitoyl])C[dK]-NH2 (disulfide 6-11 (inferred)) [Compd. ID 12]	11.5

(I) DTHXPCIKXKKC (N-term isovaleric acid; 4 Dpa; 8 (D)Lys; 9 bhPhe; 10 Lys(2Peg11′_Peg11_Palm); 11 (D)Lys; C-term NH2) [Compd. ID 41]
(II) DTHXPCIKXKC (not fully specified; N-term isovaleric acid; 4 Dpa; 8 Lys[1Peg2-1Peg2-Ahx-C18_Diacid]; 9 bhPhe; 10 (D)Lys; C-term NH2) [Compd. ID 11]
Lookup: Recorded FPN EC50 values differ for I and II ; which one is higher? Please respond with the label that marks your chosen entry.
Found: I
(I: 18.5 nM, II: 12.7 nM)
